All values here come from ChEMBL document CHEMBL1681720.

Each record here notes measured inhibition.
Tested on: Protease (Human T-cell leukemia virus type I), Q82134 [L40I]
Sequence (whole entry): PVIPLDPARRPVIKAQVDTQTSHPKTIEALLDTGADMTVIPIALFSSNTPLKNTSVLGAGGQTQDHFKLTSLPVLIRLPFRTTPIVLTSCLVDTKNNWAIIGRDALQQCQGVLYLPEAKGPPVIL
ASSAY TEXT: Inhibition of HTLV-1 protease L40I mutant at 50 nM by fluorimetric assay
Reply with just the number (in %).

Example entries and their recorded answers appear below.
# input molecule: "CC(C)(C)CNC(=O)[C@H]1N(C(=O)[C@@H](O)[C@H](Cc2ccccc2)NC(=O)[C@@H](NC(=O)[C@@H](N)Cc2ccccc2)C(C)(C)C)CSC1(C)C" ; wanted: its inhibition
28

# input molecule: "CC(C)(C)CNC(=O)[C@H]1N(C(=O)[C@@H](O)[C@H](Cc2ccccc2)NC(=O)[C@@H](NC(=O)[C@H](O)c2ccccc2)C(C)(C)C)CSC1(C)C" ; wanted: its inhibition
10

# input molecule: "CC(C)(C)CNC(=O)[C@H]1N(C(=O)[C@@H](O)[C@H](Cc2ccccc2)NC(=O)[C@@H](NC(=O)[C@@H](N)c2ccccc2)C(C)(C)C)CSC1(C)C" ; wanted: its inhibition
69

# input molecule: "CC(C)[C@H](N)C(=O)N[C@H](C(=O)N[C@@H](Cc1ccccc1)[C@H](O)C(=O)N1CSC(C)(C)[C@H]1C(=O)NCC(C)(C)C)C(C)(C)C" ; wanted: its inhibition
26

# input molecule: "CC(C)(C)CNC(=O)[C@H]1N(C(=O)[C@@H](O)[C@H](Cc2ccccc2)NC(=O)[C@@H](NC(=O)[C@@H](O)c2ccccc2)C(C)(C)C)CSC1(C)C" ; wanted: its inhibition
43

New cases:
# input molecule: CC(C)(C)CNC(=O)[C@H]1N(C(=O)[C@@H](O)[C@H](Cc2ccccc2)NC(=O)[C@@H](NC(=O)C(C(=O)OCc2ccccc2)c2ccccc2)C(C)(C)C)CSC1(C)C (mixture of isomers) ; wanted: its inhibition
26

###

Each record here notes measured inhibition.
Test system: Protease (Human T-cell leukemia virus type I), Q82134 [L40I]
Sequence (whole entry): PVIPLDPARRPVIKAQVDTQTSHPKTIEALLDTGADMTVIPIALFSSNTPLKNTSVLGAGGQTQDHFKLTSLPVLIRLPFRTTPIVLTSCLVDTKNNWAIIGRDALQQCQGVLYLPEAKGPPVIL
ASSAY TEXT: Inhibition of HTLV-1 protease L40I mutant at 50 nM by fluorimetric assay
Write the numeric value and append its unit.

What reported inhibition corresponds to "CC(C)(C)CNC(=O)[C@H]1N(C(=O)[C@@H](O)[C@H](Cc2ccccc2)NC(=O)[C@@H](NC(=O)[C@@H](N)C2CCCCC2)C(C)(C)C)CSC1(C)C" on Protease (Human T-cell leukemia virus type I), Q82134 [L40I]?
65%

###

ASSAYED SYSTEM: Protease (Human T-cell leukemia virus type I, UniProt Q82134, L40I)
ASSAY TEXT: Inhibition of HTLV-1 protease L40I mutant by fluorimetric assay
IC50 less than 10 nM is t; IC50 greater than or equal to 10 nM is f.

# check: IC50 < 10 nM for "CC(C)(C)CNC(=O)[C@H]1N(C(=O)[C@@H](O)[C@H](Cc2ccccc2)NC(=O)[C@@H](NC(=O)[C@@H](N)C2CCCCC2)C(C)(C)C)CSC1(C)C"
f

New cases:
# check: IC50 < 10 nM for "CC(C)(C)CNC(=O)[C@H]1N(C(=O)[C@@H](O)[C@H](Cc2ccccc2)NC(=O)[C@@H](NC(=O)[C@@H](N)c2ccccc2)C(C)(C)C)CSC1(C)C"
f

# check: IC50 < 10 nM for "CCCC(=O)N[C@H](C(=O)N[C@H](C(=O)N[C@@H](Cc1ccccc1)[C@H](O)C(=O)N1CSC(C)(C)[C@H]1C(=O)NCC(C)(C)C)C(C)(C)C)c1ccccc1"
t

# check: IC50 < 10 nM for CCCC(=O)NC(C(=O)N[C@H](C(=O)N[C@@H](Cc1ccccc1)[C@H](O)C(=O)N1CSC(C)(C)[C@H]1C(=O)NCC(C)(C)C)C(C)(C)C)c1cc(F)c(F)c(F)c1 (stereo in doubt; 19a)
f

# check: IC50 < 10 nM for CCCC(=O)NC(C(=O)N[C@H](C(=O)N[C@@H](Cc1ccccc1)[C@H](O)C(=O)N1CSC(C)(C)[C@H]1C(=O)NCC(C)(C)C)C(C)(C)C)c1cc(F)c(F)c(F)c1 (stereo in doubt; 20a)
f

# check: IC50 < 10 nM for "CCCC(=O)N[C@H](C(=O)N[C@H](C(=O)N[C@@H](Cc1ccccc1)[C@H](O)C(=O)N1CSC(C)(C)[C@H]1C(=O)NCC(C)(C)C)C(C)(C)C)[C@@H](C)CC"
t

###

Each record here notes measured inhibition.
ASSAYED SYSTEM: Protease (Human immunodeficiency virus 1) (UniProt Q9YQ12)
Sequence (Q9YQ12 as listed by the source): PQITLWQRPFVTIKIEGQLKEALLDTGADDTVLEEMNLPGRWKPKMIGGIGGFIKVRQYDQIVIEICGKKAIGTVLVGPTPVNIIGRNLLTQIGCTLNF
ASSAY TEXT: Inhibition of recombinant HIV-1 protease at 50 nM
Reply with just the number (in %).

# input compound: "CCCC(=O)N[C@H](C(=O)N[C@H](C(=O)N[C@@H](Cc1ccccc1)[C@H](O)C(=O)N1CSC(C)(C)[C@H]1C(=O)NCC(C)(C)C)C(C)(C)C)[C@@H](C)CC" ; wanted: its inhibition
95

# input compound: "CC(C)(C)CNC(=O)[C@H]1N(C(=O)[C@@H](O)[C@H](Cc2ccccc2)NC(=O)[C@@H](NC(=O)[C@@H](N)C(C)(C)C)C(C)(C)C)CSC1(C)C" ; wanted: its inhibition
95

# input compound: CCCC(=O)NC(C(=O)N[C@H](C(=O)N[C@@H](Cc1ccccc1)[C@H](O)C(=O)N1CSC(C)(C)[C@H]1C(=O)NCC(C)(C)C)C(C)(C)C)c1cc(F)c(F)c(F)c1 (single isomer, unassigned; enantiomer b) ; wanted: its inhibition
80

###

System: Protease (Human T-cell leukemia virus type I), Q82134 [L40I]
Sequence (whole entry): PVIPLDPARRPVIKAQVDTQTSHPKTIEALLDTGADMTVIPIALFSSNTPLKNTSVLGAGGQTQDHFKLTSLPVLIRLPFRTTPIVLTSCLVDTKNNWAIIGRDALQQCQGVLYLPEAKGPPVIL
ASSAY TEXT: Inhibition of HTLV-1 protease L40I mutant at 50 nM by fluorimetric assay
READOUT NAME: inhibition
Write the numeric value and append its unit.

# input compound: "CCCC(=O)N[C@H](C(=O)N[C@H](C(=O)N[C@@H](Cc1ccccc1)[C@H](O)C(=O)N1CSC(C)(C)[C@H]1C(=O)NCC(C)(C)C)C(C)(C)C)c1ccccc1" ; wanted: its inhibition
93%

# input compound: "CC(C)(C)CNC(=O)[C@H]1N(C(=O)[C@@H](O)[C@H](Cc2ccccc2)NC(=O)[C@@H](NC(=O)C(C)(C)c2ccccc2)C(C)(C)C)CSC1(C)C" ; wanted: its inhibition
4%

# input compound: "CC(C)(C)CNC(=O)[C@H]1N(C(=O)[C@@H](O)[C@H](Cc2ccccc2)NC(=O)[C@@H](NC(=O)Cc2ccccc2)C(C)(C)C)CSC1(C)C" ; wanted: its inhibition
8%

###

System: Protease (Human T-cell leukemia virus type I), Q82134 [L40I]
ASSAY TEXT: Inhibition of HTLV-1 protease L40I mutant at 50 nM by fluorimetric assay
Each record here notes measured inhibition.
Reply with just the number (in %).

Example entries and their recorded answers appear below.
# input compound: "CCCC(=O)N[C@H](C(=O)N[C@H](C(=O)N[C@@H](Cc1ccccc1)[C@H](O)C(=O)N1CSC(C)(C)[C@H]1C(=O)NCC(C)(C)C)C(C)(C)C)[C@@H](C)CC" ; wanted: its inhibition
86

# input compound: CCCC(=O)NC(C(=O)N[C@H](C(=O)N[C@@H](Cc1ccccc1)[C@H](O)C(=O)N1CSC(C)(C)[C@H]1C(=O)NCC(C)(C)C)C(C)(C)C)c1cc(F)c(F)c(F)c1 (single isomer, unassigned; enantiomer b) ; wanted: its inhibition
20

Moving on to the next compound.
# input compound: CCCC(=O)NC(C(=O)N[C@H](C(=O)N[C@@H](Cc1ccccc1)[C@H](O)C(=O)N1CSC(C)(C)[C@H]1C(=O)NCC(C)(C)C)C(C)(C)C)c1cc(F)c(F)c(F)c1 (stereo in doubt; 19b) ; wanted: its inhibition
18

###

ASSAYED SYSTEM: Protease (Human immunodeficiency virus 1) (UniProt Q9YQ12)
ASSAY TEXT: Inhibition of recombinant HIV-1 protease at 50 nM
READOUT NAME: inhibition

# input compound: CC(C)(C)CNC(=O)[C@H]1N(C(=O)[C@@H](O)[C@H](Cc2ccccc2)NC(=O)[C@@H](NC(=O)C(C(=O)OCc2ccccc2)c2ccccc2)C(C)(C)C)CSC1(C)C (mixture of isomers) ; wanted: its inhibition
34%

# input compound: CCCC(=O)NC(C(=O)N[C@H](C(=O)N[C@@H](Cc1ccccc1)[C@H](O)C(=O)N1CSC(C)(C)[C@H]1C(=O)NCC(C)(C)C)C(C)(C)C)c1cc(F)c(F)c(F)c1 (stereo in doubt; 19a) ; wanted: its inhibition
> 99%

# input compound: "CC(C)[C@H](N)C(=O)N[C@H](C(=O)N[C@@H](Cc1ccccc1)[C@H](O)C(=O)N1CSC(C)(C)[C@H]1C(=O)NCC(C)(C)C)C(C)(C)C" ; wanted: its inhibition
96%

New cases:
# input compound: CCCC(=O)NC(C(=O)N[C@H](C(=O)N[C@@H](Cc1ccccc1)[C@H](O)C(=O)N1CSC(C)(C)[C@H]1C(=O)NCC(C)(C)C)C(C)(C)C)c1cc(F)c(F)c(F)c1 (stereo in doubt; 19b) ; wanted: its inhibition
68%

# input compound: "CC(C)(C)CNC(=O)[C@H]1N(C(=O)[C@@H](O)[C@H](Cc2ccccc2)NC(=O)[C@@H](NC(=O)[C@@H](N)C2CCCCC2)C(C)(C)C)CSC1(C)C" ; wanted: its inhibition
99%
